System: MCF7 complex spheroid growth, % test/control
test.protocol: Anticancer human tumor MCF7 cell line growth inhibition [Asc];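 note: spheroids exposed to compounds for 7 days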
cond: curve of first compound; second compound 0.1 µM
Text: Multicellular complex tumor spheroid response to apoptosis pathway targeting inhibitors Alrizomadlin, Pelcitoclax, and Dasminapant in combination with a variety of drugs and investigational agents in selected tumor cell lines […] Compounds. […] If the clinical Cmax for an agent had not been determined, the highest concentration tested was 10 microM. […]
measurement.name: IC50 (µM)
Give just the number in µM; leave the unit off.

See these solved cases before continuing.
Supply reported IC50 belonging to this compound: Cc1nc(N2CCC3(CC2)COC(C)C3N)c(CO)nc1Sc1ccnc(N)c1Cl (configuration not stated) + Cc1c(S(C)(=O)=O)c(-c2cc(F)cc(N3CCN(c4ccc(NS(=O)(=O)c5ccc(NC(CCN6CCC(C(=O)OCCCP(=O)(O)O)CC6)CSc6ccccc6)c(S(=O)(=O)C(F)(F)F)c5)cc4)CC3)c2)c(-c2ccc(Cl)cc2)n1C(C)C
0.787

Give me measured IC50, please, for this compound: NC(=O)C(=Cn1cnc(-c2cc(C(F)(F)F)cc(C(F)(F)F)c2)n1)c1cncnc1 + Cc1c(S(C)(=O)=O)c(-c2cc(F)cc(N3CCN(c4ccc(NS(=O)(=O)c5ccc(NC(CCN6CCC(C(=O)OCCCP(=O)(O)O)CC6)CSc6ccccc6)c(S(=O)(=O)C(F)(F)F)c5)cc4)CC3)c2)c(-c2ccc(Cl)cc2)n1C(C)C
0.0516

Supply measured IC50 of CNC(C)C(=O)NC1CN(S(=O)(=O)c2cccc(S(=O)(=O)N3CCC4CCC(C(=O)NC(c5ccccc5)c5ccccc5)N4C(=O)C(NC(=O)C(C)NC)C3)c2)CCC2CCC(C(=O)NC(c3ccccc3)c3ccccc3)N2C1=O (configuration not stated) + Cc1c(S(C)(=O)=O)c(-c2cc(F)cc(N3CCN(c4ccc(NS(=O)(=O)c5ccc(NC(CCN6CCC(C(=O)OCCCP(=O)(O)O)CC6)CSc6ccccc6)c(S(=O)(=O)C(F)(F)F)c5)cc4)CC3)c2)c(-c2ccc(Cl)cc2)n1C(C)C in your reply.
0.00644

Answer with the recorded IC50 for the compound listed here: C=C(F)C(=O)N1CCN(c2nc(OCC3CCCN3C)nc3c2CCN(c2cccc4cccc(Cl)c24)C3)CC1CC#N (configuration not stated) + Cc1c(S(C)(=O)=O)c(-c2cc(F)cc(N3CCN(c4ccc(NS(=O)(=O)c5ccc(NC(CCN6CCC(C(=O)OCCCP(=O)(O)O)CC6)CSc6ccccc6)c(S(=O)(=O)C(F)(F)F)c5)cc4)CC3)c2)c(-c2ccc(Cl)cc2)n1C(C)C
4.54

# context switch: different compound, same IC50
Give reported IC50 value for CCN1C(C(=O)NC23CCC(C(=O)O)(CC2)CC3)C(c2cccc(Cl)c2F)C2(C(=O)Nc3cc(Cl)ccc32)C12CCCCC2 (configuration not stated) + Cc1c(S(C)(=O)=O)c(-c2cc(F)cc(N3CCN(c4ccc(NS(=O)(=O)c5ccc(NC(CCN6CCC(C(=O)OCCCP(=O)(O)O)CC6)CSc6ccccc6)c(S(=O)(=O)C(F)(F)F)c5)cc4)CC3)c2)c(-c2ccc(Cl)cc2)n1C(C)C
0.11

---

Tested on: MCF7 complex spheroid growth, % test/control
test.protocol: Anticancer human tumor MCF7 cell line growth inhibition [Asc]; active = viability on the fitted dose curve at most 10% of control; inactive = the rest;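 note: spheroids exposed to compounds for 7 days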
cond: second compound 0.1 µM; first compound 10 µM
Output constraint: value belongs to true (1) = active, false (0) = inactive

Please review the entries below; each comes with its answer.
Which outcome was entered for the compound C=C(F)C(=O)N1CCN(c2nc(OCC3CCCN3C)nc3c2CCN(c2cccc4cccc(Cl)c24)C3)CC1CC#N (stereo not drawn) + Cc1c(S(C)(=O)=O)c(-c2cc(F)cc(N3CCN(c4ccc(NS(=O)(=O)c5ccc(NC(CCN6CCC(C(=O)OCCCP(=O)(O)O)CC6)CSc6ccccc6)c(S(=O)(=O)C(F)(F)F)c5)cc4)CC3)c2)c(-c2ccc(Cl)cc2)n1C(C)C in this test?
true (1)

Write down the call the test reported for this compound. Item: C#Cc1c(F)ccc2cc(O)cc(-c3ncc4c(N5CC6CCC(C5)N6)nc(OCC56CCCN5CC(F)C6)nc4c3F)c12 (stereo not drawn) + CNC(C)C(=O)NC1CN(S(=O)(=O)c2cccc(S(=O)(=O)N3CCC4CCC(C(=O)NC(c5ccccc5)c5ccccc5)N4C(=O)C(NC(=O)C(C)NC)C3)c2)CCC2CCC(C(=O)NC(c3ccccc3)c3ccccc3)N2C1=O
true (1)

Query: recorded result category for C=C(F)C(=O)N1CCN(c2nc(OCC3CCCN3C)nc3c2CCN(c2cccc4cccc(Cl)c24)C3)CC1CC#N (stereo not drawn) + CNC(C)C(=O)NC1CN(S(=O)(=O)c2cccc(S(=O)(=O)N3CCC4CCC(C(=O)NC(c5ccccc5)c5ccccc5)N4C(=O)C(NC(=O)C(C)NC)C3)c2)CCC2CCC(C(=O)NC(c3ccccc3)c3ccccc3)N2C1=O in this test
true (1)

Next:
What did the test return for C=CC(=O)N1CCN(c2nc(=O)n(-c3c(C)ccnc3C(C)C)c3nc(-c4c(O)cccc4F)c(F)cc23)C(C)C1 (stereo not drawn) + Cc1c(S(C)(=O)=O)c(-c2cc(F)cc(N3CCN(c4ccc(NS(=O)(=O)c5ccc(NC(CCN6CCC(C(=O)OCCCP(=O)(O)O)CC6)CSc6ccccc6)c(S(=O)(=O)C(F)(F)F)c5)cc4)CC3)c2)c(-c2ccc(Cl)cc2)n1C(C)C ?
false (0)

Returns: the outcome recorded for C#Cc1c(F)ccc2cc(O)cc(-c3ncc4c(N5CC6CCC(C5)N6)nc(OCC56CCCN5CC(F)C6)nc4c3F)c12 (stereo not drawn) + Cc1c(S(C)(=O)=O)c(-c2cc(F)cc(N3CCN(c4ccc(NS(=O)(=O)c5ccc(NC(CCN6CCC(C(=O)OCCCP(=O)(O)O)CC6)CSc6ccccc6)c(S(=O)(=O)C(F)(F)F)c5)cc4)CC3)c2)c(-c2ccc(Cl)cc2)n1C(C)C in this assay.
false (0)

Recorded test outcome, item O=C(c1cc(Cc2n[nH]c(=O)c3ccccc23)ccc1F)N1CCN(C(=O)C2CC2)CC1 + Cc1c(S(C)(=O)=O)c(-c2cc(F)cc(N3CCN(c4ccc(NS(=O)(=O)c5ccc(NC(CCN6CCC(C(=O)OCCCP(=O)(O)O)CC6)CSc6ccccc6)c(S(=O)(=O)C(F)(F)F)c5)cc4)CC3)c2)c(-c2ccc(Cl)cc2)n1C(C)C
false (0)

Give the logged outcome of this assay for the following compound: C=CC(=O)N1CCN(c2nc(=O)n(-c3c(C)ccnc3C(C)C)c3nc(-c4c(O)cccc4F)c(F)cc23)C(C)C1 (stereo not drawn) + CNC(C)C(=O)NC1CN(S(=O)(=O)c2cccc(S(=O)(=O)N3CCC4CCC(C(=O)NC(c5ccccc5)c5ccccc5)N4C(=O)C(NC(=O)C(C)NC)C3)c2)CCC2CCC(C(=O)NC(c3ccccc3)c3ccccc3)N2C1=O
false (0)

Test call for this compound, please: O=C(c1cc(Cc2n[nH]c(=O)c3ccccc23)ccc1F)N1CCN(C(=O)C2CC2)CC1 + CNC(C)C(=O)NC1CN(S(=O)(=O)c2cccc(S(=O)(=O)N3CCC4CCC(C(=O)NC(c5ccccc5)c5ccccc5)N4C(=O)C(NC(=O)C(C)NC)C3)c2)CCC2CCC(C(=O)NC(c3ccccc3)c3ccccc3)N2C1=O
false (0)

---

Tested on: MCF7 complex spheroid growth, % test/control
test.protocol: Anticancer human tumor MCF7 cell line growth inhibition [Asc];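 note: spheroids exposed to compounds for 7 days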;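 for viability, T/C: 100% = DMSO vehicle control wells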
cond: second compound 1 µM; first compound 10 µM; stronger effect = lower value
measurement.name: viability, T/C (%)
Give just the numeric value; % need not be written.

Hello, please tell me recorded viability, T/C for this one: O=C(c1cc(Cc2n[nH]c(=O)c3ccccc23)ccc1F)N1CCN(C(=O)C2CC2)CC1 + Cc1c(S(C)(=O)=O)c(-c2cc(F)cc(N3CCN(c4ccc(NS(=O)(=O)c5ccc(NC(CCN6CCC(C(=O)OCCCP(=O)(O)O)CC6)CSc6ccccc6)c(S(=O)(=O)C(F)(F)F)c5)cc4)CC3)c2)c(-c2ccc(Cl)cc2)n1C(C)C
40.4

Next:
Please list viability, T/C recorded for the molecule C=CC(=O)N1CCN(c2nc(=O)n(-c3c(C)ccnc3C(C)C)c3nc(-c4c(O)cccc4F)c(F)cc23)C(C)C1 (configuration not stated) + CNC(C)C(=O)NC1CN(S(=O)(=O)c2cccc(S(=O)(=O)N3CCC4CCC(C(=O)NC(c5ccccc5)c5ccccc5)N4C(=O)C(NC(=O)C(C)NC)C3)c2)CCC2CCC(C(=O)NC(c3ccccc3)c3ccccc3)N2C1=O
28.9

---

Tested on: MCF7 complex spheroid growth, % test/control
test.protocol: Anticancer human tumor MCF7 cell line growth inhibition [Asc]; active = viability on the fitted dose curve at most 10% of control; inactive = the rest;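 note: spheroids exposed to compounds for 7 days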
cond: second compound 0.316 µM; first compound 0.01 µM
Give one outcome, nothing more. List: active, inactive

As a guide, the following entries are already answered.
What outcome does the record of this test show for COc1c(OCCCN2CCOCC2)ccc2c3n(c(=NC(=O)c4cnc(N)nc4)nc12)CCN3 + CNC(C)C(=O)NC1CN(S(=O)(=O)c2cccc(S(=O)(=O)N3CCC4CCC(C(=O)NC(c5ccccc5)c5ccccc5)N4C(=O)C(NC(=O)C(C)NC)C3)c2)CCC2CCC(C(=O)NC(c3ccccc3)c3ccccc3)N2C1=O ?
active

Can you look up the reported call for CCN1CCN(Cc2ccc(Nc3ncc(F)c(-c4cc(F)c5nc(C)n(C(C)C)c5c4)n3)nc2)CC1 + CNC(C)C(=O)NC1CN(S(=O)(=O)c2cccc(S(=O)(=O)N3CCC4CCC(C(=O)NC(c5ccccc5)c5ccccc5)N4C(=O)C(NC(=O)C(C)NC)C3)c2)CCC2CCC(C(=O)NC(c3ccccc3)c3ccccc3)N2C1=O for me?
inactive

What is the recorded call for this compound in the test? NC1CCC(NC2CC2c2ccccc2)CC1 (centres undefined) + Cc1c(S(C)(=O)=O)c(-c2cc(F)cc(N3CCN(c4ccc(NS(=O)(=O)c5ccc(NC(CCN6CCC(C(=O)OCCCP(=O)(O)O)CC6)CSc6ccccc6)c(S(=O)(=O)C(F)(F)F)c5)cc4)CC3)c2)c(-c2ccc(Cl)cc2)n1C(C)C
inactive

Okay, now this compound:
Test call for this compound, please: Cn1ncnc1[C@H]1c2n[nH]c(=O)c3cc(F)cc(c23)N[C@@H]1c1ccc(F)cc1 + CNC(C)C(=O)NC1CN(S(=O)(=O)c2cccc(S(=O)(=O)N3CCC4CCC(C(=O)NC(c5ccccc5)c5ccccc5)N4C(=O)C(NC(=O)C(C)NC)C3)c2)CCC2CCC(C(=O)NC(c3ccccc3)c3ccccc3)N2C1=O
inactive
